Data provenance is patent US7078195B2.

System: M. morganii GC 4531
test: Broth dilution MIC
Assay type: cell-based
stated-conditions: Mueller-Hinton broth, 18 hours at 35° C.
measured-metric: Antimicrobial Activity (MIC)

Solved entries (count: 3):
CCC(C)CCCCC(=O)OC(C(C)C)C(NC(=O)C(NC(=O)NC(C(=O)O)C(C)C)C1CCNC(=N)N1)C(=O)NCCCNC(C(=O)O)C(O[C@@H]1O[C@H](CN)[C@@H](O)[C@H]1OC)C1OC(n2ccc(=O)[nH]c2=O)C(O)C1O (some centres unmarked) [AA-896-B3] ... >32 µg/mL
CC(C)CCCCC(=O)OC(C(C)C)C(NC(=O)C(NC(=O)NC(C(=O)O)C(C)C)C1CCNC(=N)N1)C(=O)NCCCNC(C(=O)O)C(OC1OC(CN)C(O)C1O)C1OC(n2ccc(=O)[nH]c2=O)C(O)C1O (centres unmarked) [AA-896-B7] ... >64 µg/mL
COC1C(OC(C(NCCCNC(=O)C(NC(=O)C(NC(=O)NC(C(=O)O)C(C)C)C2CCNC(=N)N2)C(O)C(C)C)C(=O)O)C2OC(n3ccc(=O)[nH]c3=O)C(O)C2O)OC(CN)C1O (centres unmarked) [AA-896-C1] ... >32 µg/mL

Incoming: Can you look up the measured Antimicrobial Activity (MIC) of CC(C)C(NC(=O)NC(C(=O)NC(C(=O)NCCCNC(C(=O)O)C(O[C@@H]1O[C@H](CN)[C@@H](O)[C@H]1O)C1OC(n2ccc(=O)[nH]c2=O)C(O)C1O)C(O)C(C)C)C1CCNC(=N)N1)C(=O)O (some centres unmarked) [AA-896-C2] for me?
Outgoing: >32 µg/mL

Incoming: Can you look up the measured Antimicrobial Activity (MIC) of CC(C)CC(NC(=O)C(NC(=O)NC(C(=O)O)C(C)C)C1CCNC(=N)N1)C(=O)NCCCNC(C(=O)O)C(OC1CC(O)C(CN)O1)C1OC(n2ccc(=O)[nH]c2=O)C(O)C1O (centres unmarked) [AA-896-D3] for me?
Outgoing: >32 µg/mL

* * *

System: S. aureus GC 4536
test: Broth dilution MIC
Type: cell-based
stated-conditions: Mueller-Hinton broth, 18 hours at 35° C.
Some compounds, each annotated with its measured Antimicrobial Activity (MIC).

CC(C)CCCCC(=O)OC(C(C)C)C(NC(=O)C(NC(=O)NC(C(=O)O)C(C)C)C1CCNC(=N)N1)C(=O)NCCCNC(C(=O)O)C(OC1OC(CN)C(O)C1O)C1OC(n2ccc(=O)[nH]c2=O)C(O)C1O (stereo not drawn) ... >64 µg/mL

Incoming: Can you look up the measured Antimicrobial Activity (MIC) of CC(C)C(NC(=O)NC(C(=O)NC(C(=O)NCCCNC(C(=O)O)C(OC1CC(O)C(CN)O1)C1OC(n2ccc(=O)[nH]c2=O)C(O)C1O)C(O)C(C)C)C1CCNC(=N)N1)C(=O)O (stereo not drawn) for me?
Outgoing: >32 µg/mL

Incoming: Can you look up the measured Antimicrobial Activity (MIC) of CC(C)CC(NC(=O)C(NC(=O)NC(C(=O)O)C(C)C)C1CCNC(=N)N1)C(=O)NCCCNC(C(=O)O)C(OC1CC(O)C(CN)O1)C1OC(n2ccc(=O)[nH]c2=O)C(O)C1O (stereo not drawn) for me?
Outgoing: >32 µg/mL

* * *

Test system: M. morganii GC 4531
test: Broth dilution MIC
Assay type: cell-based
stated-conditions: Mueller-Hinton broth, 18 hours at 35° C.
Method: The in vitro antibacterial activity of AA-896-A1, AA-896-A2, AA-896-A3, AA-896-A4, AA-896-A5, AA-896-B1, AA-896-B2, AA-896-B3, AA-896-B4, AA-896-B5, AA-896-B6, AA-896-B7, AA-896-C1, AA-896-C2, AA-896-C3, AA-896-C4, AA-896-D1, AA896-D2 and AA-896-D3 is determined against a spectrum of Gram-positive and Gram-negative bacteria by a standard broth dilution method. Serial dilution of the compounds are made in Mueller-Hinton broth and inoculated with a bacterial suspension. […]
measured-metric: Antimicrobial Activity (MIC)

Solved entries (count: 2):
COC1C(OC(C(NCCCNC(=O)C(NC(=O)C(NC(=O)NC(C(=O)O)C(C)C)C2CCNC(=N)N2)C(OC(=O)CCCCC(C)C)C(C)C)C(=O)O)C2OC(n3ccc(=O)[nH]c3=O)C(O)C2O)OC(CN)C1O (stereo not drawn) ... >64 µg/mL
CC(C)C(NC(=O)NC(C(=O)NC(C(=O)NCCCNC(C(=O)O)C(OC1CC(O)C(CN)O1)C1OC(n2ccc(=O)[nH]c2=O)C(O)C1O)C(O)C(C)C)C1CCNC(=N)N1)C(=O)O (stereo not drawn) ... >32 µg/mL

Now, please, on to the next compound.
Incoming: Can you look up the measured Antimicrobial Activity (MIC) of CC(C)CC(NC(=O)C(NC(=O)NC(C(=O)O)C(C)C)C1CCNC(=N)N1)C(=O)NCCCNC(C(=O)O)C(OC1OC(CN)C(O)C1O)C1OC(n2ccc(=O)[nH]c2=O)C(O)C1O (stereo not drawn) [AA-896-D2] for me?
Outgoing: >32 µg/mL
